// provenance: ChEMBL document CHEMBL2057127

# study_system: Histone deacetylase 2 (Homo sapiens, UniProt Q92769)
# Sequence (Q92769 whole entry): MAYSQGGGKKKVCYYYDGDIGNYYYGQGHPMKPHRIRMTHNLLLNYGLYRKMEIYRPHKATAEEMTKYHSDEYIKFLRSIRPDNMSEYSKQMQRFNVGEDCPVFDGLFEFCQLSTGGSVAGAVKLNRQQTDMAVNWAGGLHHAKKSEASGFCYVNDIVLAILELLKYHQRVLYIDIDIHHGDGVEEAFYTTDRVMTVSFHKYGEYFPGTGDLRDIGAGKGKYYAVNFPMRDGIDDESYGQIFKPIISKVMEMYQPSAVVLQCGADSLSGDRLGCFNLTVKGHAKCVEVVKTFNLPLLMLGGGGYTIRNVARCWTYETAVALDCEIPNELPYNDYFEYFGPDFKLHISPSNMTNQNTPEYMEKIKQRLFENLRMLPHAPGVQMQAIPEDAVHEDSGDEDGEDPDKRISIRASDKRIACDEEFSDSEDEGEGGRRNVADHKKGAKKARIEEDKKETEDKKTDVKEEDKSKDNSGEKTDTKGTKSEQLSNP
# test_description: Inhibition of human recombinant HDAC2 using Boc-L-Lys (Ac)-AMC as substrate preincubated with compound for 24 hrs measured after 35 mins by spectrofluorometric analysis
Listed compounds paired with reported IC50

molecule: Nc1ccc(-c2ccccc2)cc1NC(=O)c1ccccc1
IC50: 0.14 µM
//
molecule: [N-]=[N+]=Nc1cccc(COC(=O)NCc2ccc(C(=O)Nc3cc(-c4ccccc4)ccc3N)cc2)c1
IC50: 0.32 µM
